- Test system: MET;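 also: KINOMEscan kinase panel screen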
- assayContext: concentration: 1 μM, replicates: in singlicate; n = 1
Classify as follows. Reported %Inh greater than or equal to 9%: Yes. Reported %Inh below: No.

## Input Textbook exercise: given the entry COc1cc2ncnc(Nc3ccc4nc(-c5ccccc5)[nH]c4c3)c2cc1OC.Cl [GW282450] , state whether its %Inh is greater than or equal to 9%.
## Output No

## Input Textbook exercise: given the entry Cc1ccccc1-n1cnc2c(N)ncnc21 [SKF-97510] , state whether its %Inh is greater than or equal to 9%.
## Output No

## Input Textbook exercise: given the entry Cc1cccc(-c2cc(Nc3ccncc3)c3ccccc3n2)n1 [GSK223675] , state whether its %Inh is greater than or equal to 9%.
## Output No

## Input Textbook exercise: given the entry `O=C(Nc1ccccc1)Nc1cccc(Oc2ccc3nccn3n2)c1` , state whether its %Inh is greater than or equal to 9%.
## Output No

## Input Textbook exercise: given the entry `Cn1ccc2ncnc(Oc3ccc(NC(=O)Nc4ccccc4)cc3)c21` , state whether its %Inh is greater than or equal to 9%.
## Output Yes

## Input Textbook exercise: given the entry CCn1c(-c2ccccn2)nc2cnccc21 [SB-736398] , state whether its %Inh is greater than or equal to 9%.
## Output Yes

## Input Textbook exercise: given the entry Cl.NC(=O)c1cccc(Nc2nccc(Nc3ccc(Oc4cccc(Cl)c4)c(Cl)c3)n2)c1 [GW659008] , state whether its %Inh is greater than or equal to 9%.
## Output Yes

## Input Textbook exercise: given the entry COc1cccc(-c2cc(-c3c[nH]nc3-c3ccccn3)ccn2)c1 [GW680338] , state whether its %Inh is greater than or equal to 9%.
## Output Yes
